Listed next: entries and their corresponding kon.
# MEASUREMENT TARGET: T1, human TF ECD-His (hTF-his) (human, UniProt P13726 33-251)
# T1 construct: also called bio-hTF-his; human TF-His protein
# METHOD SUMMARY: SPR Biacore T200, antibody on Protein A chip, TF-His as analyte, 1:1 model
Dear colleague, please return just the value in M⁻¹ s⁻¹, with no unit written.

Would you please look over these solved cases?
>  <BINDER>
hu67-11 (antibody, human IgG1, kappa, V domains shown) VH: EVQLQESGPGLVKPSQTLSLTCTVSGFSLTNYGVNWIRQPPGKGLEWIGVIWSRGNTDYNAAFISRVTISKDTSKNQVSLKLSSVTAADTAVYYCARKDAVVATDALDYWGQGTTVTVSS VL: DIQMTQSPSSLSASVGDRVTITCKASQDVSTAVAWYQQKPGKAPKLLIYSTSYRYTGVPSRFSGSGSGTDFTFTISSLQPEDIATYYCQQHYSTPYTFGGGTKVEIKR

>  <READING>
40900

$$$$
>  <BINDER>
hu67-3 (antibody, human IgG1, kappa, V domains shown) VH: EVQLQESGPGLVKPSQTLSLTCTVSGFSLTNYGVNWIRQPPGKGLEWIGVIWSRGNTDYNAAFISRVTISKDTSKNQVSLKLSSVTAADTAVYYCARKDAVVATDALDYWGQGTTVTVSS VL: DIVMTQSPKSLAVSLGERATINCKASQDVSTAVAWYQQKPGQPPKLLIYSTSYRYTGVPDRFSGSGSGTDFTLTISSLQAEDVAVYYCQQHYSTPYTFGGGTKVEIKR

>  <READING>
46600

$$$$
>  <BINDER>
hu67-8 (antibody, human IgG1, kappa, V domains shown) VH: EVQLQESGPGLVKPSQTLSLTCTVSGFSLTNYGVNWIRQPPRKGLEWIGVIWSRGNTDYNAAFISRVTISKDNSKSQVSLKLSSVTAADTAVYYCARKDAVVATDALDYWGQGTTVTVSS VL: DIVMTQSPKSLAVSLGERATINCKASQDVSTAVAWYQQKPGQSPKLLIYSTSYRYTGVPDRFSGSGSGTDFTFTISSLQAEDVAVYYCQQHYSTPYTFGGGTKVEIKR

>  <READING>
39000

$$$$
>  <BINDER>
hu67-10 (antibody, human IgG1, kappa, V domains shown) VH: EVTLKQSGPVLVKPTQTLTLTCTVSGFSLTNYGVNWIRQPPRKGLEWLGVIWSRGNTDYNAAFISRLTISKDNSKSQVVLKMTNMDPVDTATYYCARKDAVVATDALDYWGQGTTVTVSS VL: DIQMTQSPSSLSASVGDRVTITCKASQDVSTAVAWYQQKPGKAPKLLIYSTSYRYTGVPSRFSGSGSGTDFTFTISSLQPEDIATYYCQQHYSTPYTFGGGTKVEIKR

>  <READING>
39200

$$$$
>  <BINDER>
hu67-9 (antibody, human IgG1, kappa, V domains shown) VH: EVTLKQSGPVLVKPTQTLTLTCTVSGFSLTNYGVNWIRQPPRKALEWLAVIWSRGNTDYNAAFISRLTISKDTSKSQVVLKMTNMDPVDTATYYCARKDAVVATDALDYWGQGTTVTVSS VL: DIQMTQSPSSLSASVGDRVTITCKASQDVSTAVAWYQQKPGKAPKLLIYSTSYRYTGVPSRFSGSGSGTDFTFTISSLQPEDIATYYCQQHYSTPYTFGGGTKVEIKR

>  <READING>
34500

$$$$
>  <BINDER>
hu10H10-77 (antibody, V domains shown, H11+L9; Full-length IgG) VH: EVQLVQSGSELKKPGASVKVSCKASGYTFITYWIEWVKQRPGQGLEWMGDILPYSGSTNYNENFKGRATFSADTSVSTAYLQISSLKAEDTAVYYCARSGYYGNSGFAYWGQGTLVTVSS VL: DIQMTQSPSSLSASVGDRVTITCQSSQSLLSSGNQKNYLTWYQQKPGKAPKLLIYWASTRESGVPSRFSGSGSGTDFTLTISSLQPEDFATYYCQNDYTYPLTFGQGTKLEIK

>  <READING>
146000

$$$$
>  <BINDER>
hu67-6 (antibody, human IgG1, kappa, V domains shown) VH: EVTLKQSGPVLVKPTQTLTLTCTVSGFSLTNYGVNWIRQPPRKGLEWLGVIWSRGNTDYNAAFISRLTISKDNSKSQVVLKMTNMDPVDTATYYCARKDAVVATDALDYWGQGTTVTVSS VL: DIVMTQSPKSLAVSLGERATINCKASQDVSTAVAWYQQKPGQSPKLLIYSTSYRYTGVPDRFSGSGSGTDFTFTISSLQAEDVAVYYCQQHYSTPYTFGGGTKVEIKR

>  <READING>
30000

$$$$
>  <BINDER>
hu67-4 (antibody, human IgG1, kappa, V domains shown) VH: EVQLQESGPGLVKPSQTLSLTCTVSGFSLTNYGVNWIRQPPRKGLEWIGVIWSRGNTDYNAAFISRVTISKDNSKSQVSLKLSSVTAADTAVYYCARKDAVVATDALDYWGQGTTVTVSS VL: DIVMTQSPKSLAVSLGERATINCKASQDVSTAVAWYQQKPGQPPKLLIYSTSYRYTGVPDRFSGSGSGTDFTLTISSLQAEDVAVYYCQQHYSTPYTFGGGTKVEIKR

>  <READING>
40500

$$$$
>  <BINDER>
chimeric antibody CH67 (antibody, human IgG1, kappa, V domains shown, Murine 67# variable regions + human constant regions) VH: QVQLKQSGPGLVQPSQSLSITCIVSGFSLTNYGVNWVRQSPRKGLEWLGVIWSRGNTDYNAAFISRLIISKDNSKSQVFLKMNRLQADDTAIYYCARKDAVVATDALDYWGQGTSVTVSS VL: DIVMTQSHKFMSTSLGDRVSITCKASQDVSTAVAWYQQKPGQSPKLLIYSTSYRYTGVPDRFTGSGSGTDFTFTISSVQAEDLAVYYCQQHYSTPYTFGGGTKLEIKR

>  <READING>
26400

$$$$

Continue with the binder presented below.
Q) # get_value(readout='kon', item= hu67-16 (antibody, human IgG1, kappa, V domains shown) VH: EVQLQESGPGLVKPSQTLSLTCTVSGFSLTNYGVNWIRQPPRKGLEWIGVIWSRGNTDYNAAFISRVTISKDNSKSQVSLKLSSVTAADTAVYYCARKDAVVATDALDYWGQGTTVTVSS VL: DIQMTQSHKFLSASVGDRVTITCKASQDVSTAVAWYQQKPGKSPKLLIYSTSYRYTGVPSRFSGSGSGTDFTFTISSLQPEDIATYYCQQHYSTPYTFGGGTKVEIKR )
A) 36500
